Target: BRM (Homo sapiens, UniProt P51531)
Construct: made in house; host or cells: High Five insect cells
Sequence (P51531 whole entry): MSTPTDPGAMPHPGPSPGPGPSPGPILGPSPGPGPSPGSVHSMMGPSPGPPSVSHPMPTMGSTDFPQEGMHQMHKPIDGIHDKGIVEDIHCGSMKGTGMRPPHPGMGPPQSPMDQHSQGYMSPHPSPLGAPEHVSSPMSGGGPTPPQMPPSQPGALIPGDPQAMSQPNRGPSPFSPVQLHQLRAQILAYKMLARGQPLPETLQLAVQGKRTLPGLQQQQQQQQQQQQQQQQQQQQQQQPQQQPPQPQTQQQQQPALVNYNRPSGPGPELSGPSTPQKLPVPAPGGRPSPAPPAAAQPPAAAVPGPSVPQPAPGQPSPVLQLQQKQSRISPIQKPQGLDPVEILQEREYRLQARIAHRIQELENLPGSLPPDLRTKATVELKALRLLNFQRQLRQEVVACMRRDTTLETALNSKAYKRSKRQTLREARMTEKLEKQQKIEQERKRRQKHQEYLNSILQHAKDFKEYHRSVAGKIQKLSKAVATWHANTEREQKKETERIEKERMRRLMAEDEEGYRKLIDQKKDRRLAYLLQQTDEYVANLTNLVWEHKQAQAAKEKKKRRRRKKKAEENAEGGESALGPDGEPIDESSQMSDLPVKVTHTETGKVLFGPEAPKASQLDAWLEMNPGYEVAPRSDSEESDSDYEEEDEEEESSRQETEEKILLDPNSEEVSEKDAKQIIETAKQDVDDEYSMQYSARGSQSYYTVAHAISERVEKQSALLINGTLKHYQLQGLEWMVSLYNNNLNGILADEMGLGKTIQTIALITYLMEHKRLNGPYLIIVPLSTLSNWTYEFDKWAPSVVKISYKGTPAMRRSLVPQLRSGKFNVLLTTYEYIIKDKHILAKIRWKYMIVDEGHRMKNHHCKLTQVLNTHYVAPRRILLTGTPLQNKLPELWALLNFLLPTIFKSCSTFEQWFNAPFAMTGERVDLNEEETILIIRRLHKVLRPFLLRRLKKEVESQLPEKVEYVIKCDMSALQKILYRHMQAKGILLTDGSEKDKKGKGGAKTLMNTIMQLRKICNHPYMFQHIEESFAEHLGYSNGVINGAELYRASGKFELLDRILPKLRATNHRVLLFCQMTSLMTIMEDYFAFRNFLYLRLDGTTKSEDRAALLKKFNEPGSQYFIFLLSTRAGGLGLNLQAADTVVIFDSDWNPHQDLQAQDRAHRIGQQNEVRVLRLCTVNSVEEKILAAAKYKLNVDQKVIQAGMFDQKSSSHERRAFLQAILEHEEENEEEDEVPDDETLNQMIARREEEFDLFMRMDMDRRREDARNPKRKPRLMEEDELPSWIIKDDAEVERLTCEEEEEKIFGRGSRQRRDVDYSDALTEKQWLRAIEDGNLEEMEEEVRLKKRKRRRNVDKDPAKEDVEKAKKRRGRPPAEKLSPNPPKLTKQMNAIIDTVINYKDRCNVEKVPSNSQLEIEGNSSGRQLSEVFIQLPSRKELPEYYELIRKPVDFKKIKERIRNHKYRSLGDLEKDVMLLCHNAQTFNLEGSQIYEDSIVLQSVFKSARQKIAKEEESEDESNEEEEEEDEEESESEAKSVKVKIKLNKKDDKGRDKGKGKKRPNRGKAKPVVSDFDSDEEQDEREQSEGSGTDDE
Experiment: ATPase catalytic activity of BRM, ADP-Glo in vitro biochemical assay
Conditions: ADP-Glo ATPase assay, 30 nM BRM, 400 μM ATP
reported.metric: IC50 (nM)
Numbers only, in nM.

| compound | reported.metric | measured |
| --- | --- | --- |
| CS(=O)(=O)c1cc(C(=O)NCc2cc3nc(-c4cccc(N5CC[C@H]6COC[C@H]6C5)n4)ccc3cn2)ccc1C(F)F [Compound 95] | IC50 | 40.7 |
| O=C(NCc1cc2nc(-c3cccc(OC(F)(F)F)n3)ccc2cn1)c1ccc2c(c1)S(=O)(=O)CCOC2 [Compound 237] | IC50 | 22.7 |
| O=C(NCc1cc2nc(-c3cccc(N4CC[C@H](F)C4)n3)ccc2cn1)c1ccc2c(c1)S(=O)(=O)CCOC2 [Compound 224] | IC50 | 25.9 |
| O=C(NCc1cc2nc(-c3cccc(OC4COC4)c3)ccc2cn1)c1ccc2c(c1)S(=O)(=O)CCOC2 [Compound 242] | IC50 | 286 |
| CN1CCc2ccc(-c3ccc4cnc(CNC(=O)c5ccc6c(c5)S(=O)(=O)CCOC6)cc4n3)nc21 [Compound 190] | IC50 | 45.9 |

// for each compound below, give its IC50
1. O=C(NCc1cc2nc(-c3ccccc3OC3CC3)ccc2cn1)c1ccc2c(c1)S(=O)(=O)CCOC2 [Compound 232]
2. CC(C)(F)c1cncc(-c2ccc3cnc(CNC(=O)c4ccc5c(c4)S(=O)(=O)CCOC5)cc3n2)n1 [Compound 262]
3. CC(F)(F)c1cccc(-c2ccc3cnc(CNC(=O)c4ccc5c(c4)S(=O)(=O)CCOC5)cc3n2)n1 [Compound 281]
4. O=C(NCc1cc2nc(-c3cccc(C4=CCOCC4)n3)ccc2cn1)c1ccc2c(c1)S(=O)(=O)CCOC2 [Compound 183]
5. O=C(NCc1cc2nc(N3CCCc4ccc(C(F)CF)nc43)ccc2cn1)c1ccc2c(c1)S(=O)(=O)CCOC2 (centres unmarked) [Compound 823]
6. C[C@@H]1CN(c2ccc(F)c(-c3ccc4cnc(CNC(=O)c5ccc6c(c5)S(=O)(=O)CCOC6)cc4n3)n2)C[C@H](C)O1 [Compound 166]

Output:
1. 58.5
2. 466
3. 82.8
4. 8.9
5. 61.3
6. 16.8
